Biological target: UniProt:P05202
Sequence (P05202 whole entry): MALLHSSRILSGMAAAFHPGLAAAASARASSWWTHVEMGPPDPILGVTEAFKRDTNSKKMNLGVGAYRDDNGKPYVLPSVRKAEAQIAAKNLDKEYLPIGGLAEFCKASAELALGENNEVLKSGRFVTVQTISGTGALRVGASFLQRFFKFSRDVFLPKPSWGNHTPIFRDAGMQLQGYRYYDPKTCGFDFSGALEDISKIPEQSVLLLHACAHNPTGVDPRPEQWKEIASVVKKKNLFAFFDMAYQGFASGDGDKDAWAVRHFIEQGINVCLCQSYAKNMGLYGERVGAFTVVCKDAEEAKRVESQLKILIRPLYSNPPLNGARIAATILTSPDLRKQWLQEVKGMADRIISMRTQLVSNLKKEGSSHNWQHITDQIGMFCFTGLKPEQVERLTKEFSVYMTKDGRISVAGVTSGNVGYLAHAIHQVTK
Assay: In vivo toxic effect as serum aspartate aminotransferase (ASAT) 24 hr after DOPE complexed 50 ug pTG11033 plasmid injection into mice
Type: functional, organism-based
quantity: Toxicity
Format: numeric value only, no unit, no commentary.

Use these answered entries as a reference point.
compound	quantity	measured
CCCCCCCC/C=C/CCCCCCCCOP(=O)(CC[As+](C)(C)C)OCCCCCCCC/C=C/CCCCCCCC.[I-]	Toxicity	303
CCCCCCCC/C=C/CCCCCCCCOP(=O)(C[N+](C)(C)C)OCCCCCCCC/C=C/CCCCCCCC.[I-]	Toxicity	125
CCCCCCCCCCCCCCOP(=O)(CC[As+](C)(C)C)OCCCCCCCCCCCCCC.[I-]	Toxicity	155
CCCCCCCC/C=C\CCCCCCCC(=O)OCC(C[N+](C)(C)C)OC(=O)CCCCCCC/C=C\CCCCCCCC.[Cl-] (configuration not stated)	Toxicity	275
CCCCCCCCCCCCCCOP(=O)(C[N+](C)(C)C)OCCCCCCCCCCCCCC.[I-]	Toxicity	130
CCCCCCCCCCCCCCOP(=O)(CC[P+](C)(C)C)OCCCCCCCCCCCCCC.[I-]	Toxicity	145

Alright, here's another compound for you.
Problem: Provide only the value of recorded Toxicity for `CCCCCCCC/C=C/CCCCCCCCOP(=O)(CC[P+](C)(C)C)OCCCCCCCC/C=C/CCCCCCCC.[I-]`
Result: 646
